Recorded values, source patent US6608082B1.

# SYSTEM: MCR-1 (Homo sapiens)
# Construct: expressed in transfected cells; host or cells: HEK 293
# PROTOCOL_DESCRIPTION: Melanocortin receptor binding assay, competition with 125I-HP 467, HEK 293 cells expressing hMCR-1
# CONDITIONS_USED: displacement of 125I-HP 467 at 10 μM isoquinoline compound; second of duplicate
EXPERIMENTAL_ENDPOINT: % Disp. MC-1 10 μM (%)
Please state the figure in %; there is no need to write the unit.

// known answers, use as guide
In [3]: df
Out[3]:
                                   molecule  unit_of_measurement  observed_result
0  CNC(CN)CN1Cc2ccccc2C(CNC2CCCCC2)C1c1ccc(OCCCN(C)C)cc1 (stereo not drawn) [TRG 2405-144]                    %             41.7
1  NCCN1Cc2ccccc2C(CNC2CCCCC2)C1c1ccc([N+](=O)[O-])cc1 (stereo not drawn) [TRG 2405-71]                    %               40
2  COc1ccc(C2C(CNC3CCCCC3)c3ccccc3CN2CCN)cc1C (stereo not drawn) [TRG 2405-46]                    %             40.3

Retrieve % Disp. MC-1 10 μM on MCR-1 (Homo sapiens); query NCCN1Cc2ccccc2C(CNC2CCCCC2)C1c1cc2c3c(c1O)CCCN3CCC2 (stereo not drawn) [TRG 2405-84] 37.5

Retrieve % Disp. MC-1 10 μM on MCR-1 (Homo sapiens); query NCCN1Cc2ccccc2C(CNC2CCCCC2)C1c1ccc(Br)o1 (stereo not drawn) [TRG 2405-89] 31.2

Retrieve % Disp. MC-1 10 μM on MCR-1 (Homo sapiens); query Cc1cccc(C2C(CNC3CCCCC3)c3ccccc3CN2CCN)c1 (stereo not drawn) [TRG 2405-47] 45.8

Retrieve % Disp. MC-1 10 μM on MCR-1 (Homo sapiens); query NCCN1Cc2ccccc2C(CNC2CCCCC2)C1c1nccs1 (stereo not drawn) [TRG 2405-90] 45.9

Retrieve % Disp. MC-1 10 μM on MCR-1 (Homo sapiens); query CNC(CN)CN1Cc2ccccc2C(CNC2CCCCC2)C1c1cc(OC)cc(OC)c1 (stereo not drawn) [TRG 2405-121] 38.7

Retrieve % Disp. MC-1 10 μM on MCR-1 (Homo sapiens); query NCCN1Cc2ccccc2C(CNC2CCCCC2)C1c1cccc(C(F)(F)F)c1 (stereo not drawn) [TRG 2405-35] 55

---

# SYSTEM: MCR-1 (Homo sapiens, UniProt Q01726)
# Construct: expressed in transfected cells; host or cells: HEK 293
# Sequence (Q01726 whole entry): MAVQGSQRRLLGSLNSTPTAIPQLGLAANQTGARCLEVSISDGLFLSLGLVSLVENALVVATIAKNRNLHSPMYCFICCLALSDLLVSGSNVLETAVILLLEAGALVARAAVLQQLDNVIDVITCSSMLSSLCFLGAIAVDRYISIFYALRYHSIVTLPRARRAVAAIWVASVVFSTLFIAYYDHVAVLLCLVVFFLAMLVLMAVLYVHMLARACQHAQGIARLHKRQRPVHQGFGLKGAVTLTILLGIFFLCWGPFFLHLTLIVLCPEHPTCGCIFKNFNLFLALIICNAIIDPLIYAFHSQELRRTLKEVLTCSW
# PROTOCOL_DESCRIPTION: cAMP assay for melanocortin receptors, HEK 293 cells expressing MCR-1
# Assay type: cell-based
# CONDITIONS_USED: maximum amount of cAMP
Assign class by MC-1 Max (pmole) cAMP produced: not lower than 70 pmol means t; lower than 70 pmol means f.

Please review the entries below; each comes with its answer.
                                   compound                                system  label_value
0  CNC(CN)CCCCN1Cc2ccccc2C(CNC2CCCCC2)C1c1ccc(O)cc1 (centres unmarked) [TRG 2405-246]  MCR-1 (Homo sapiens, UniProt Q01726)            f
1  CNC(CN)CCCCN1Cc2ccccc2C(CNC2CCCCC2)C1c1ccc(N(C)C)cc1 (centres unmarked) [TRG 2405-235]  MCR-1 (Homo sapiens, UniProt Q01726)            f
2  CCCCNc1ccc(C2C(CNC3CCCCC3)c3ccccc3CN2CCCCC(CN)NC)cc1 (centres unmarked) [TRG 2409-14]  MCR-1 (Homo sapiens, UniProt Q01726)            t
3  CNC(CN)CCCCN1Cc2ccccc2C(CNC2CCCCC2)C1c1ccc(-c2ccccc2)cc1 (centres unmarked) [TRG 2405-241]  MCR-1 (Homo sapiens, UniProt Q01726)            f

Decide: MC-1 Max (pmole) cAMP produced of CNC(CN)CCCCN1Cc2ccccc2C(CNC2CCCCC2)C1c1ccc(Cl)cc1Cl (centres unmarked) [TRG 2405-190] >= 70 pmol? f

Decide: MC-1 Max (pmole) cAMP produced of CCCOc1ccc(C2C(CNC3CCCCC3)c3ccccc3CN2CCCCC(CN)NC)cc1 (centres unmarked) [TRG 2405-253] >= 70 pmol? f

Decide: MC-1 Max (pmole) cAMP produced of CCNc1ccc(C2C(CNC3CCCCC3)c3ccccc3CN2CCCCC(CN)NC)cc1 (centres unmarked) [TRG 2405-239] >= 70 pmol? f

Decide: MC-1 Max (pmole) cAMP produced of CCNc1ccc(C2C(CNC3CCCCC3)c3ccccc3CN2CCCCC(CN)NC)cc1 (centres unmarked) [TRG 2408-30] >= 70 pmol? t

---

Catalogue of pEC50 values
# SYSTEM: MCR-4 (Homo sapiens, UniProt P32245)
# Sequence (P32245 whole entry): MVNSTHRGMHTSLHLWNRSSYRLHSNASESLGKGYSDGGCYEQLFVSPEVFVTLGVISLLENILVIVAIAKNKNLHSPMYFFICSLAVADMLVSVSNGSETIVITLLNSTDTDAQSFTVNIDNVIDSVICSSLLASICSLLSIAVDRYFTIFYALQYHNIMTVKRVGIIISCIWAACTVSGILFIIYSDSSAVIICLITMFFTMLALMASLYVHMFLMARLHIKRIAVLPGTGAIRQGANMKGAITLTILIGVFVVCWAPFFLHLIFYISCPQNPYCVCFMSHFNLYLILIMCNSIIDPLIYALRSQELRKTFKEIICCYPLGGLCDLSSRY
# PROTOCOL_DESCRIPTION: cAMP assay for melanocortin receptors, HEK 293 cells expressing MCR-4
# CONDITIONS_USED: read-out: MC-4 EC50 (cAMP)
pEC50 is a log-scale quantity: -log10 of the concentration expressed in molar.

In [3]: df
Out[3]:
                                   compound                                system  experimental_endpoint  observed_result
0  CCCOc1ccc(C2C(CNC3CCCCC3)c3ccccc3CN2CCCCC(CN)NC)cc1 (stereo not drawn)  MCR-4 (Homo sapiens, UniProt P32245)                  pEC50             4.78

Consider the record given below.
Return value of pEC50 for input CNC(CN)CCCCN1Cc2ccccc2C(CNC2CCCCC2)C1c1ccc(-c2ccccc2)cc1 (stereo not drawn) , no commentary. 4.55

---

# SYSTEM: MCR-4 (Homo sapiens)
# Construct: expressed in transfected cells; host or cells: HEK 293
# PROTOCOL_DESCRIPTION: Melanocortin receptor binding assay, competition with 125I-HP 467, HEK 293 cells expressing hMCR-4
# CONDITIONS_USED: inhibition of binding of 125I-HP 467, HEK 293 cells expressing MCR-4; read-out: MC-4 IC50
EXPERIMENTAL_ENDPOINT: log10(IC50) (log10 of the value in µM)
Parameter value (number): base-10 log of IC50 in µM.

// known answers, use as guide
                                   molecule                system  experimental_endpoint  observed_result
0  NCC(CCCCN1Cc2ccccc2C(CNCCc2ccccc2)C1c1cccc(C(F)(F)F)c1)NCc1ccccc1 (stereo not drawn)  MCR-4 (Homo sapiens)            log10(IC50)             0.24
1  CCOc1ccc(CCNCC2c3ccccc3CN(CCCCC(CN)NCc3ccc(C)cc3)C2c2cc(C(F)(F)F)cc(C(F)(F)F)c2)cc1 (stereo not drawn)  MCR-4 (Homo sapiens)            log10(IC50)             0.91

Consider the record given below.
Return value of log10(IC50) for input CCOc1ccc(C2C(CNCCc3ccccc3)c3ccccc3CN2CCCC(CN)NCc2ccccc2)cc1 (stereo not drawn) , no commentary. -0.64

---

# SYSTEM: MCR-4 (Homo sapiens, UniProt P32245)
# Construct: expressed in transfected cells; host or cells: HEK 293
# PROTOCOL_DESCRIPTION: Melanocortin receptor binding assay, competition with 125I-HP 467, HEK 293 cells expressing hMCR-4
# CONDITIONS_USED: inhibition of binding of 125I-HP 467, HEK 293 cells expressing MCR-4; TRG 2414 library; read-out: MC-4 IC50
Catalogue of IC50 values
Please state the figure in µM; there is no need to write the unit.

                                   compound  unit_of_measurement  observed_result
0  NCC(N)CCCCN1Cc2ccccc2C(CNC2CCCCCC2)C1c1cccc(Oc2ccccc2)c1 (stereo not shown)                   µM             1.78
1  NCC(CCCCN1Cc2ccccc2C(CNCc2ccccc2)C1c1cc(C(F)(F)F)cc(C(F)(F)F)c1)NCc1ccccc1 (stereo not shown)                   µM             9.06
2  NCC(CCCCN1Cc2ccccc2C(CNCc2ccccc2)C1c1cccc(Oc2ccccc2)c1)NCCc1ccccc1 (stereo not shown)                   µM               10

Consider the record given below.
Return value of IC50 for input COc1ccccc1CCNCC1c2ccccc2CN(CCCC[C@H](N)CN)C1c1cc(C(F)(F)F)cc(C(F)(F)F)c1 (stereo partly shown) , no commentary. 0.32
